System: Wolbachia pipientis
Test: Anti-Wolbachia Cell-Based Screen
Format: functional
Design: scale not given: in the data most compounds retested in dose-response had high values
Settings: 5 µM
In all, about 48,000 compounds went through this assay and about 13,000 (27%) showed an effect of 50% or more. The list shows a part of the results.
Exercise: state measured Percent Effect for each of the compounds provided.
One number for each entry, in %.

Please review the following examples before continuing.
query: Quick check: Percent Effect of Cc1ccc(CN2CCCC(c3cncc(C)n3)C2)cn1 (stereo unspecified) ?
result: 118.4

query: Try `CC(C)(C)c1ncc(C(=O)NCCSc2ccccn2)c(O)n1` next.
result: 2.392

query: And Cc1cncc(C2CCCN(CC3CCC3)C2)n1 (stereo unspecified) ?
result: 105.7

query: Now give it for `COCCNS(=O)(=O)c1cccc2c1CN(C(=O)c1ccccc1)CC2` too.
result: 14.65

query: Thanks! And Cc1cnc(CN2CCCC(c3cc(C(F)(F)F)[nH]n3)C2)cn1 (stereo unspecified) ?
result: -5.55

With those in mind, consider the next compound.
query: For Cc1ccoc1C(=O)N1CCNCC1C(=O)NCc1ccncc1 (stereo unspecified) , what is its reported Percent Effect?
result: -11.73

###

Test system: Wolbachia pipientis
Assay: Anti-Wolbachia Cell-Based Screen
Format: functional
Set-up: scale not given: in the data most compounds retested in dose-response had high values
Conditions: 5 µM
Among all 48,000 compounds or so, about 13,000 (27%) showed an effect of 50% or more. The list shows a part of the results.
measured parameter: Percent Effect (%)
One number for each entry, in %.

Please review the entries below; each comes with its answer.
query: Entry under review: `Cc1nccnc1N1CCC(Cc2ccccc2Cl)(C(=O)O)CC1` . Reported Percent Effect?
result: 4.229

query: Input `CN(C)C(=O)[C@@H]1C[C@@H]2CCN(Cc3ccc4c(c3)OCO4)C[C@@H]2O1.O=C(O)C(F)(F)F`
result: -14.9

query: Here is the next compound: `Cc1ccccc1-n1cc(-c2ccnc(N[C@H](CO)C(C)C)n2)cn1`
result: -13.53

query: Then `O=C1CC[C@H]2CN(c3ncc(F)cn3)CC[C@H]2N1CCc1ccccc1` ?
result: -8.563

query: Same question for `CN(C)S(=O)(=O)N1C[C@@H]2CN(Cc3ccoc3)CCO[C@@H]2C1.O=C(O)C(F)(F)F` please.
result: -19.85

Hi there! I need Percent Effect for each item below, if you can.
1. Cc1ccccc1-n1cc(-c2ccnc(N3CCCC(CN)C3)n2)cn1 (stereo not given)
2. CN(C)C(=O)[C@H]1C[C@@H]2CCN(Cc3ccoc3)C[C@@H]2O1.O=C(O)C(F)(F)F
3. Cc1ccccc1-n1cc(-c2ccnc(N3CCCC(O)C3)n2)cn1 (stereo not given)
4. CC(C)(C)c1ncc(C(=O)NCCNS(C)(=O)=O)s1
5. COC(=O)C(C)(C)NC(=O)c1cnc(C(C)(C)C)s1

result:
1. 108.9
2. 113.2
3. 107.7
4. 118.2
5. -1.472

###

Task for the reader: assign each of the following compounds its reported Percent Effect.
System: Wolbachia pipientis
Test: Anti-Wolbachia Cell-Based Screen
Assay type: functional
Parameters: scale not given: in the data most compounds retested in dose-response had high values
Conditions: 5 µM
About 13,000 (27%) of roughly 48,000 compounds showed an effect of 50% or more. The list shows a part of the results.
Give bare numbers, in %.

Sample answers from the record:
query: Looking for the measured Percent Effect of `Cc1cnn(CC(=O)N2CCCN(Cc3cnn(C(C)C)c3)CC2)c1` , can you help?
result: 117.3

query: Same again, this time with `O=C(NCC(F)(F)F)C1CN(C(=O)c2cnccn2)C1`
result: -11.97

query: Could you do the same for `NC1CCN(C2CCN(c3ccc(-c4ccco4)cc3)CC2)CC1` , please?
result: -26.06

query: Param item: `CCc1nnc(CN(C)c2nccc(CCC(F)(F)F)n2)o1`
result: -5.519

query: Request: `Cc1cc(N2CCCCCC2)n2nc(C)c(C)c2n1`
result: -8.895

For each of the compounds below, state Percent Effect.
1. CCOC1CC2(CCN(Cc3cnn(C)c3)CC2)c2ccc(C)cc21 (configuration not stated)
2. Cc1cc(C(=O)N2CCCN(Cc3cnn(C(C)C)c3)CC2)no1
3. Cc1cc(C2CCC2)nc(N2CCN(Cc3nccn3C)CC2)n1

result:
1. -1.962
2. 2.122
3. -10.5

For each of the items listed, what is its Percent Effect?
1. CN(C)CCN1C[C@@H]2CN(S(=O)(=O)c3ccccc3)C[C@@H]2C1=O.O=C(O)C(F)(F)F
2. Cn1ccnc1-c1nccn1C[C@@H]1CCCN2CCCC[C@H]12
3. CC(CNC(=O)N1CCS(=O)(=O)CC1)Cc1cccs1 (configuration not stated)
4. Cc1nc(CN(C)C(=O)Nc2cnn(CC3CCCO3)c2)cs1 (configuration not stated)
5. Cc1cc(N2CCCC(O)CC2)n2nc(C)c(C)c2n1 (configuration not stated)
6. CN(C)CCN1C(=O)C[C@@H]2[C@@H]1CCN2S(=O)(=O)c1ccccc1.O=C(O)C(F)(F)F
7. Cc1cc(N2CC[C@H](O)C2)n2nc(C)c(C)c2n1

result:
[104.5, -12.88, 21.62, -5.003, -2.095, -18.17, -7.079]

Hey, quick one: what's Percent Effect for each of these?
1. O=C(CCC(=O)N1CCC(Oc2ncccc2Br)CC1)c1ccccc1
2. O=C(NCCc1nncn1C1CC1)C1SCCc2ccccc21 (configuration not stated)
3. Cn1ccnc1CN1C[C@@H](CN2CCC(CO)CC2)[C@@H](CO)C1
4. CN(C)CCN1C[C@@H]2CN(S(=O)(=O)c3cccs3)C[C@@H]2C1=O.O=C(O)C(F)(F)F
5. CCNc1ncc(C(=O)N[C@@H](C)[C@H](O)c2ccccc2)cn1
6. CN(C)CCN1C[C@@H]2CN(c3ccccc3)C[C@@H]2C1=O.O=C(O)C(F)(F)F
7. CSc1cccc(NC(=O)N2CCCC(CNC(=O)c3ccco3)C2)c1 (configuration not stated)

result:
-8.42
-2.915
-24.97
-17.1
-5.841
89.24
-2.877
